- Study System: CFTR-mediated chloride transport (Homo sapiens)
- Experiment Notes: Corrector Assay A - membrane potential dye assay (enteroid cells)
- Condition Parameters: % of chloride transport of triple combination control (1 μM (14S)-dispiro macrocycle + 3 μM tezacaftor + 300 nM ivacaftor)
Measured Parameter: Corrector Assay A % activity

1) CN(C)CCNc1cccc([C@@H]2CC[C@@H]3CN(c4nc(C(C)(C)C)ccc4C(=O)NS(=O)(=O)c4cccc(n4)N2)C(C)(C)C3)n1: ++ (++ is 30-60%)
2) CC(C)(O)/C=C/CC1CC[C@@H]2CN(c3nc(C(C)(C)C)ccc3C(=O)NS(=O)(=O)c3cccc(n3)N1)C(C)(C)C2 (single isomer, unassigned) [Compound 24]: ++ (++ is 30-60%)
3) CC1(C)C[C@@H]2CC[C@H](c3ccccn3)Nc3cccc(n3)S(=O)(=O)NC(=O)c3ccc(N4CCN(CC5CC5)C4=O)nc3N1C2: +++ (+++ is >60%)
4) CC1(C)C[C@@H]2CCC(c3ccccn3)Nc3cccc(n3)S(=O)(=O)NC(=O)c3ccc(-n4ccc(OCCC5(C(F)(F)F)CC5)n4)nc3N1C2 (single isomer, unassigned) [Compound 362]: +++ (+++ is >60%)
5) CC(C)(C)c1ccc2c(n1)N1C[C@@H](CC[C@@H](c3cc(C4=CCOCC4)ccn3)Nc3cccc(n3)S(=O)(=O)NC2=O)CC1(C)C (single isomer, unassigned) [Compound 126]: +++ (+++ is >60%)

Okay, next one:
Requested field: Corrector Assay A % activity. Item: CC(C)(C)c1ccc2c(n1)N1C[C@@H](CC[C@@H](c3ncccn3)Nc3cccc(n3)S(=O)(=O)NC2=O)CC1(C)C (single isomer, unassigned) [Compound 207]
+++ (+++ is >60%)

====

Known pEC50 of a selection of compounds
- Study System: CFTR-mediated chloride transport (Homo sapiens)
- Experiment Notes: Corrector Assay A - membrane potential dye assay (enteroid cells)
- Condition Parameters: read-out: Corrector Assay A EC50; human intestinal enteroid cells, 18-24 h incubation; acute 10 μM forskolin + 300 nM ivacaftor
pEC50: −log10 of the molar value.

Recorded results for 10 compounds are shown here.
1. COC(=O)C1CC[C@@H]2CN(c3nc(C(C)(C)C)ccc3C(=O)NS(=O)(=O)c3cccc(n3)N1)C(C)(C)C2 (single isomer, unassigned) [Compound 224]: > 6.00
2. CC(C)(C)c1ccc2c(n1)N1C[C@@H](CCC(c3ccc(CCC(=O)O)cn3)Nc3cccc(n3)S(=O)(=O)NC2=O)CC1(C)C (some centres unmarked) [Compound 98]: 5.52 to 6.00
3. CC(C)(C)c1ccc2c(n1)N1C[C@@H](CC[C@H](c3cccc(C(N)=O)n3)Nc3cccc(n3)S(=O)(=O)NC2=O)CC1(C)C [Compound 70]: > 6.00
4. CC(C)(C)c1ccc2c(n1)N1C[C@@H](CCC(c3ncccc3Cl)Nc3cccc(n3)S(=O)(=O)NC2=O)CC1(C)C (single isomer, unassigned) [Compound 66]: < 5.52
5. CC1(C)CC2CN1c1nc(-n3ccc(OCCC4(C(F)(F)F)CC4)n3)ccc1C(=O)NS(=O)(=O)c1cccc(n1)NCCC2c1ccccc1 (single isomer, unassigned) [Compound 393]: > 6.00
6. CC(C)(C)c1ccc2c(n1)N1C[C@@H](CC[C@H](c3cccc(C#N)n3)Nc3cccc(n3)S(=O)(=O)NC2=O)CC1(C)C [Compound 211]: > 6.00
7. CC1(C)C[C@@H]2CCC(c3ccccn3)Nc3cccc(n3)S(=O)(=O)NC(=O)c3ccc(-n4ccc(OCCC5C6(CC6)C56CC6)n4)nc3N1C2 (some centres unmarked) [Compound 355]: > 6.00
8. CC(C)(C)c1ccc2c(n1)N1C[C@@H](CCC(c3cc(Cl)ccn3)Nc3cccc(n3)S(=O)(=O)NC2=O)CC1(C)C (single isomer, unassigned) [Compound 127]: > 6.00
9. Cn1nccc1-c1ccc(C2CC[C@@H]3CN(c4nc(C(C)(C)C)ccc4C(=O)NS(=O)(=O)c4cccc(n4)N2)C(C)(C)C3)nc1 (some centres unmarked) [Compound 58]: > 6.00
10. CC(C)(C)CCOc1cccc(-c2ccc3c(n2)N2C[C@@H](CC[C@H](c4cccc(C(F)(F)F)n4)Nc4cccc(n4)S(=O)(=O)NC3=O)CC2(C)C)n1 [Compound 304]: > 6.00

Okay, next one:
CFTR-mediated chloride transport (Homo sapiens) / pEC50 / CC(C)(C)c1ccc2c(n1)N1C[C@@H](CC[C@@H](c3ccccc3)Nc3cccc(n3)S(=O)(=O)NC2=O)CC1(C)C (single isomer, unassigned) [Compound 294] : value?
> 6.00

====

Known EC50 of a selection of compounds
- Study System: CFTR-mediated chloride transport (Homo sapiens)
- Experiment Notes: Corrector Assay A - membrane potential dye assay (enteroid cells)
- Condition Parameters: read-out: Corrector Assay A EC50; human intestinal enteroid cells, 18-24 h incubation; acute 10 μM forskolin + 300 nM ivacaftor

1. CC1(C)C[C@@H]2CC[C@@H](c3ccccn3)Nc3cccc(n3)S(=O)(=O)NC(=O)c3ccc(-c4c(Cl)cccc4Cl)nc3N1C2 [Compound 342]: < 1000 nM
2. CC(C)(C)OC(=O)NCc1ccnc(C2CC[C@@H]3CN(c4nc(C(C)(C)C)ccc4C(=O)NS(=O)(=O)c4cccc(n4)N2)C(C)(C)C3)c1 (single isomer, unassigned) [Compound 120]: < 1000 nM

Requested field: EC50. Item: CC(C)(O)/C=C/CC1CC[C@@H]2CN(c3nc(C(C)(C)C)ccc3C(=O)NS(=O)(=O)c3cccc(n3)N1)C(C)(C)C2 (single isomer, unassigned) [Compound 24]
< 1000 nM

====

- Study System: CFTR-mediated chloride transport (Homo sapiens, UniProt P13569)
- Experiment Notes: Corrector Assay B - membrane potential dye assay (enteroid cells);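 further: methyl oxonol membrane potential fluorescence followed over 15 min after switching to chloride-free buffer with forskolin, 100 µM IBMX and ivacaftor, in presence of CaCC blockers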
- Condition Parameters: read-out: Corrector Assay B EC50; human intestinal enteroid cells, 18-24 h incubation; acute 10 μM forskolin + 300 nM ivacaftor
Measured Parameter: EC50

Recorded results for 5 molecules are shown here.
1) CC1(C)C[C@@H]2CCCN(c3ccccc3)c3cccc(n3)S(=O)(=O)NC(=O)c3ccc(-n4ccc(OCCC5(C(F)(F)F)CC5)n4)nc3N1C2: < 1 µM
2) CC1(C)C[C@@H]2CCCN(CC3COC3)c3cccc(n3)S(=O)(=O)NC(=O)c3ccc(-n4ccc(OCCC5(C(F)(F)F)CC5)n4)nc3N1C2: < 1 µM
3) CC1(C)C[C@@H]2CCC(c3ccc(C(=O)O)cc3)Nc3cccc(n3)S(=O)(=O)NC(=O)c3ccc(-n4ccc(OCCC5(C(F)(F)F)CC5)n4)nc3N1C2 (single isomer, unassigned) [Compound 370]: 1 to 3 µM
4) CCCC1(C)CC2CCCNc3cccc(n3)S(=O)(=O)NC(=O)c3ccc(-n4ccc(OCCC5(C(F)(F)F)CC5)n4)nc3N1C2 (single isomer, unassigned) [Compound 367]: < 1 µM
5) CC1(C)C[C@@H]2CCC(c3cncnc3)Nc3cccc(n3)S(=O)(=O)NC(=O)c3ccc(-n4ccc(OCCC5(C(F)(F)F)CC5)n4)nc3N1C2 (single isomer, unassigned) [Compound 374]: < 1 µM

Requested field: EC50. Item: CCCC1(C)CC2CCCNc3cccc(n3)S(=O)(=O)NC(=O)c3ccc(-n4ccc(OCCC5(C(F)(F)F)CC5)n4)nc3N1C2 (single isomer, unassigned) [Compound 368]
< 1 µM

Requested field: EC50. Item: CC1(C)CC2CC(c3ccccc3)CNc3cccc(n3)S(=O)(=O)NC(=O)c3ccc(-n4ccc(OCCC5(C(F)(F)F)CC5)n4)nc3N1C2 (single isomer, unassigned) [Compound 390]
< 1 µM

Requested field: EC50. Item: CC(C)(C)c1ccc2c(n1)N1C[C@@H](CCC(c3ccc(C(=O)O)cc3)Nc3cccc(n3)S(=O)(=O)NC2=O)CC1(C)C (single isomer, unassigned) [Compound 291]
1 to 3 µM

Requested field: EC50. Item: CC(C)(C)c1ccc2c(n1)N1C[C@@H](CC[C@@H](c3ccccc3)Nc3cccc(n3)S(=O)(=O)NC2=O)CC1(C)C (single isomer, unassigned) [Compound 294]
< 1 µM

Requested field: EC50. Item: CC(C)(C)c1ccc2c(n1)N1C[C@@H](CC[C@@H](c3ccccc3)Nc3cccc(n3)S(=O)(=O)NC2=O)CC1(C)C (single isomer, unassigned) [Compound 295]
< 1 µM

====

- Study System: UniProtKB P13569
- Experiment Notes: Corrector Assay A - membrane potential dye assay (enteroid cells)
- Condition Parameters: % of chloride transport of triple combination control (1 μM (14S)-dispiro macrocycle + 3 μM tezacaftor + 300 nM ivacaftor)
Measured Parameter: Corrector Assay A % activity

Recorded results for 8 compounds are shown here.
1) CC(C)(C)c1ccc2c(n1)N1C[C@@H](CC[C@@H](c3cccc(N4CCOCC4)n3)Nc3cccc(n3)S(=O)(=O)NC2=O)CC1(C)C: ++ (++ is 30-60%)
2) CC(C)(C)CCOc1cccc(-c2ccc3c(n2)N2C[C@@H](CC[C@H](c4cccc(C(F)(F)F)n4)Nc4cccc(n4)S(=O)(=O)NC3=O)CC2(C)C)n1: ++ (++ is 30-60%)
3) CC(C)(C)c1ccc2c(n1)N1C[C@@H](CC[C@@H](c3ccc(C(F)(F)F)cn3)Nc3cccc(n3)S(=O)(=O)NC2=O)CC1(C)C (single isomer, unassigned): + (+ is <30%)
4) CC(C)(C)c1ccc2c(n1)N1C[C@@H](CC[C@@H](c3cccc(Br)n3)Nc3cccc(n3)S(=O)(=O)NC2=O)CC1(C)C (single isomer, unassigned): ++ (++ is 30-60%)
5) CC(C)(C)c1ccc2c(n1)N1C[C@@H](CC[C@@H](c3cccc(C4CNC4)n3)Nc3cccc(n3)S(=O)(=O)NC2=O)CC1(C)C: ++ (++ is 30-60%)
6) CC(C)(C)c1ccc2c(n1)N1C[C@@H](CCC(c3ccc(Cl)cn3)Nc3cccc(n3)S(=O)(=O)NC2=O)CC1(C)C (single isomer, unassigned) [Compound 209]: ++ (++ is 30-60%)
7) CC(C)(C)c1ccc2c(n1)N1C[C@@H](CCC(C3CCN(CCC(F)(F)F)CC3)Nc3cccc(n3)S(=O)(=O)NC2=O)CC1(C)C (some centres unmarked): ++ (++ is 30-60%)
8) CC(C)(C)c1ccc2c(n1)N1C[C@@H](CC[C@@H](c3cccc(CN)n3)Nc3cccc(n3)S(=O)(=O)NC2=O)CC1(C)C: ++ (++ is 30-60%)

Requested field: Corrector Assay A % activity. Item: CC(C)(C)c1ccc2c(n1)N1C[C@@H](CC[C@@H](c3ncccc3Br)Nc3cccc(n3)S(=O)(=O)NC2=O)CC1(C)C (single isomer, unassigned) [Compound 54]
+ (+ is <30%)

Requested field: Corrector Assay A % activity. Item: CC1(C)C[C@@H]2CC[C@@H](c3ccccn3)Nc3cccc(n3)S(=O)(=O)NC(=O)c3ccc(Cc4ccccc4)nc3N1C2
++ (++ is 30-60%)

Attribution: patent US20220313698A1
